- Tested On: Pancreas GK (Homo sapiens, UniProt P35557)
- Construct: (His)6
- Sequence (P35557 whole entry): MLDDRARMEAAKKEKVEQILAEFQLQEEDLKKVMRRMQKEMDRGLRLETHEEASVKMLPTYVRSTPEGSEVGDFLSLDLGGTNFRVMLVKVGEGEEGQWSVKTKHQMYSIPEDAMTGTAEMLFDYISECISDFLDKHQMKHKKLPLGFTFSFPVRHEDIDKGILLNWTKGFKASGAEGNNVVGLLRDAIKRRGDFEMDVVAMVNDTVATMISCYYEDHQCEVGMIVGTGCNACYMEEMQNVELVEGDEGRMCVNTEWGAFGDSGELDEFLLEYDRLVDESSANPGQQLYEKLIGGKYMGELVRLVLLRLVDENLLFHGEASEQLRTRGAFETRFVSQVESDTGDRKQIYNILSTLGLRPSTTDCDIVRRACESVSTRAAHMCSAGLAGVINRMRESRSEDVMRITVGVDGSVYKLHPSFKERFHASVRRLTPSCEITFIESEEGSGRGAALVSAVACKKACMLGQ
- Protocol Notes: Glucokinase enzyme assay, pancreas GK
- Test Conditions: concentration that produces 50% activation above the vehicle control
Reported Metric: EC50 (µM)
Form entry: value (µM) — number only.

{"columns": ["Compound", "Value Units", "EC50"],
 "data": [
  ["COC(=O)c1ccc(NC(=O)CSC2C(C)=C(C)C(=O)N2Cc2ccc(F)cc2)nc1 (centres unmarked)", "µM", 0.98],
  ["COC(=O)c1ccc(NC(=O)CSC2C(C)=C(C)C(=O)N2Cc2ccc3c(c2)CCO3)nc1 (centres unmarked)", "µM", 1.09],
  ["CC1=C(C)C(SCC(=O)Nc2ccccn2)N(Cc2cccs2)C1=O (centres unmarked)", "µM", 13.6],
  ["COc1ccc(CN2C(=O)C(C)=C(C)C2OCC(=O)Nc2ccc(C)cn2)cc1 (centres unmarked)", "µM", 18.5],
  ["COC(=O)c1ccc(NC(=O)CSC2C(C)=C(C)C(=O)N2Cc2ccc(OC)c(OC)c2)nc1 (centres unmarked)", "µM", 1.14],
  ["COc1ccc(CN2C(=O)C=C(C)C2SCC(=O)Nc2ccccn2)cc1 (centres unmarked)", "µM", 15.2]
]}

Query :: Lab note: need EC50 with Pancreas GK (Homo sapiens, UniProt P35557) for entry COC(=O)c1ccc(NC(=O)CSC2C(C)=C(C)C(=O)N2Cc2ccc(OC(F)F)cc2)nc1 (centres unmarked) , please look it up.
Result :: 2.5

Query :: Lab note: need EC50 with Pancreas GK (Homo sapiens, UniProt P35557) for entry CC1=C(C)C(SCC(=O)Nc2ccccn2)N(Cc2ccc3c(c2)CCO3)C1=O (centres unmarked) , please look it up.
Result :: 3.23

Query :: Lab note: need EC50 with Pancreas GK (Homo sapiens, UniProt P35557) for entry COc1ccc(CN2C(=O)C(C)=C(C)C2SCC(=O)Nc2cccc(C)n2)cc1 (centres unmarked) , please look it up.
Result :: 8.13

Query :: Lab note: need EC50 with Pancreas GK (Homo sapiens, UniProt P35557) for entry COc1ccc(CN2C(=O)C(C)=C(C)C2SCC(=O)Nc2ccc(C(N)=O)cn2)cc1 (centres unmarked) , please look it up.
Result :: 3.51

Query :: Lab note: need EC50 with Pancreas GK (Homo sapiens, UniProt P35557) for entry CCc1ccc(CN2C(=O)C(C)=C(C)C2SCC(=O)Nc2ccccn2)cc1 (centres unmarked) , please look it up.
Result :: 24
